All values here come from the MegaScale stability set (Tsuboyama et al. 2023).

B1: r16_88_TrROS_Hall (parent)
chain: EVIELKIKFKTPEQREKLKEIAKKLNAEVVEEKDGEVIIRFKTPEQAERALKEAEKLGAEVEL

# Variants of: B1
# method-summary: folding stability dG (cDNA display proteolysis); higher = more stable
# test-settings: PBS, room temperature
List of folding stability dG values.
Respond numerically; units are kcal/mol and should not be typed.

Check out these entries, answers already filled in.
EVIELKIKFKTPEQREKLKEIAKKLNAEVVEEKDGEVIIRFKTPEQAERALKEAEKLGAEVES [L63S]
4.39
EVIELKIKFKTPEQREKLKEIAKKLNAEVVEEKDGEVIIRFKTPEQRERALKEAEKLGAEVEL [A47R]
4.53
EVIELKIKFKTPEQREKLKEIAKKLNAEVVEEKDGEVIIRFKTPYQAERALKEAEKLGAEVEL [E45Y]
4.73
EVIELKIKFKTPEQREKLKEIAKKLNAEVVEEKDGEVIIRFKTPEQAERALKEAEPLGAEVEL [K56P]
4.5
EVIELKIKFKTPEQREKLKEIAKKLNAEVVEEKDGEVIIRFKTPFQAERALKEAEKLGAEVEL [E45F]
4.44
EVIELKIKFKTPEQREKLKEIAKKLNREVVEEKDGEVIIRFKTPEQAERALKEAEKLGAEVEL [A27R]
3.72
EVIELKKKFKTPEQREKLKEIAKKLNAEVVEEKDGEVIIRFKTPEQAERALKEAEKLGAEVEL [I7K]
2.77
EVIELKIKFKTPEQREKLKEIAKKLNAEVVEEKDGEVLIRFKTPEQAERALKEAEKLGAEVEL [I38L]
4.25

Task item: Provide only the value of recorded folding stability dG for EVIELKIKFKTPELREKLKEIAKKLNAEVVEEKDGEVIIRFKTPEQAERALKEAEKLGAEVEL [Q14L]
Reply: 4.33

Task item: Give reported folding stability dG value for EVIELKIKFKTPEQREKLKEIAKKLNAEVVEEKDGEVIIRFKTPEQAERALKEAEKLLAEVEL [G58L]
Reply: 4.35

Task item: // Input: EVIELKIKFKTPEQREKLKEIAKKLNAEVVEEKDGEVIIRNKTPEQAERALKEAEKLGAEVEL [F41N] . Output its folding stability dG only.
Reply: 3.33

Task item: Note folding stability dG for the variant shown: EVIELKIKFKTPEQREKLKEIAKKLNFEVVEEKDGEVIIRFKTPEQAERALKEAEKLGAEVEL [A27F]
Reply: 4.4

Task item: Indicate its recorded folding stability dG; the variant in question is EVIELKIKFKTPNQREKLKEIAKKLNAEVVEEKDGEVIIRFKTPEQAERALKEAEKLGAEVEL [E13N]
Reply: 4.57

Task item: Please indicate folding stability dG recorded for EVIELKIKFKTPEQRKKLKEIAKKLNAEVVEEKDGEVIIRFKTPEQAERALKEAEKLGAEVEL [E16K]
Reply: 4.47

Task item: Give folding stability dG for the following variant: EVIELKIKFKTPEQREKLKEIAKKLNACVVEEKDGEVIIRFKTPEQAERALKEAEKLGAEVEL [E28C]
Reply: 4.65

Task item: Annotate the variant EVCELKIKFKTPEQREKLKEIAKKLNAEVVEEKDGEVIIRFKTPEQAERALKEAEKLGAEVEL [I3C] with its measured folding stability dG.
Reply: 4.46

Task item: Please look at this variant and report its folding stability dG: EVIELKIKFKTPEQYEKLKEIAKKLNAEVVEEKDGEVIIRFKTPEQAERALKEAEKLGAEVEL [R15Y]
Reply: 4.58

Task item: Name the recorded folding stability dG of the variant listed here: EVIELKIKFKTDEQREKLKEIAKKLNAEVVEEKDGEVIIRFKTPEQAERALKEAEKLGAEVEL [P12D]
Reply: 4.2

Task item: Tell me measured folding stability dG for EVIELKIKFKTPEQREKLCEIAKKLNAEVVEEKDGEVIIRFKTPEQAERALKEAEKLGAEVEL [K19C] please.
Reply: 4.22

Task item: Report folding stability dG for EVIELKIKFKTPEQREKLKEIAKKLNAEVVEEKDGEVIIRFKTPEQAERADKEAEKLGAEVEL [L51D]
Reply: 3.96

Task item: Please look at this variant and report its folding stability dG: EVIELKIKFKTPEQREKLKEIAKKLNAEVVEEKDGEVIIRFKTPEQAERALKEAEKLGAEREL [V61R]
Reply: 3.46

Task item: Assign folding stability dG to the following record: EVIELKIKFKTPEQREKLKEIAKRLNAEVVEEKDGEVIIRFKTPEQAERALKEAEKLGAEVEL [K24R]
Reply: 4.38
